This section presents compounds with their documented Potency values.
target of assay: Glucocorticoid receptor (Homo sapiens)
assay details: GR-EFC Redistribution (AID 451); note: potency is the fitted concentration of half-maximal effect
test context: CHO-K1 GR-EFC translocation, beta-gal luminescence, 2 h
Method: NIH Molecular Libraries Screening Centers Network [MLSCN] NIH Chemical Genomics Center [NCGC] The glucocorticoid receptor (GR) is a cytoplasmic receptor that belongs to the nuclear receptor family of ligand-dependent transcription factors. […] GR-translocation was measured beta-gal enzyme activity using the PathHunter Detection Kit containing cell membrane permeablizing reagent and beta-gal substrate (DiscoveRx, Fremont, CA). […] Read plate in luminescence mode in ViewLux plate reader (PerkinElmer) […]
The source made the active and inactive calls. Calls come from the whole dose curve.

substance smiles: NC(=O)CN1C[C@@H](O)CC1=O
Potency: > 46 µM (inactive)

For the compound N[C@H](Cc1ccccc1)c1nn[nH]n1 , give its reported Potency.
> 9.22 µM (inactive)

For the compound NCCP(=O)(O)O , give its reported Potency.
> 9.22 µM (inactive)

For the compound O=C(O)[C@@H](O)[C@@H](O)[C@@H]1[O][Sb][O][C@@H]1CO , give its reported Potency.
> 9.22 µM (inactive)

For the compound N[C@H](Cn1oc(=O)[nH]c1=O)C(=O)O , give its reported Potency.
> 46 µM (inactive)

For the compound N[C@@H](CSC1c2ccccc2-c2ccccc21)C(=O)O , give its reported Potency.
> 9.22 µM (inactive)

----------
assay details: MultiTox-Fluor Cytotoxicity Assay - LYMP1-002 - Dead Cells (AID 960);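 note: cells exposed to compound for 16 h at 37 °C; 0% = DMSO and 100% = tetraoctylammonium bromide; nearly all actives have a fitted effect of over 60% in size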
test context: LYMP1-002 lymphoblastoid cells, dead-cell protease fluorescence; series mostly up to 46.1 µM
Records with an inconclusive call do not appear. Calls of active or inactive are those of the source. Calls come from the whole dose curve; as a rule, active = well fitted cell-killing curve with a large enough effect; inconclusive = small, poorly fitted or top-dose-only effect, or effect the other way; inactive = no such curve, though single readings can be large or run the other way.
Form entry, call: pick from Yes = active, No = inactive

Hi, do you know how N#CC(Br)Br came out in this test?
No

Hi, do you know how CCOP(=O)(OCC)OCC came out in this test?
No

Hi, do you know how Cc1cnc[nH]1 came out in this test?
No

Hi, do you know how COP(=S)(OC)SCn1nnc2ccccc2c1=O came out in this test?
No

Hi, do you know how CCN(CC)N=O came out in this test?
No

----------
Tested on: CP268
assay details: qHTS profiling for inhibitors of Plasmodium falciparum proliferation (AID 504749); note: nearly all actives have a fitted effect of over 60% in size
test context: P. falciparum in erythrocytes, SYBR Green DNA, 72 h; series mostly up to 28.7 µM
Records with an inconclusive call do not appear. Calls of active or inactive are those of the source. Calls follow the shape of the dose curve; as a rule, active = well fitted inhibition curve with a large enough effect; inconclusive = small, poorly fitted or top-dose-only effect; inactive = flat fitted curve, though single readings scatter.
Form entry, call: pick from TRUE = active, FALSE = inactive

compound: C[C@@H](Cc1ccc(O)cc1)NC[C@@H](O)c1cc(O)cc(O)c1
classification: FALSE

Hi, do you know how C=C[C@@H]1CN2CC[C@H]1C[C@H]2[C@H](O)c1ccnc2ccccc12 came out in this test?
TRUE

Hi, do you know how C[N+]1(C)C2CC[C@H]1CC(OC(=O)[C@@H](CO)c1ccccc1)C2 (some centres undefined) came out in this test?
FALSE

Hi, do you know how C[N+]1([O-])[C@H]2CC[C@H]1CC(OC(=O)[C@@H](CO)c1ccccc1)C2 (some centres undefined) came out in this test?
FALSE

----------
assay details: Cell Viability - LYMP2-009 (AID 968);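 note: cells exposed to compound for 24 h at 37 °C; nearly all actives have a fitted effect of over 55% in size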
test context: LYMP2-009 lymphoblastoid cell viability; series mostly up to 92.2 µM
Results filed as inconclusive are left out. Active and inactive are the calls of the source. Calls come from the whole dose curve; as a rule, active = well fitted cell-killing curve with a large enough effect; inconclusive = small, poorly fitted or top-dose-only effect; inactive = flat fitted curve, though single readings scatter.
Form entry, call: pick from true for active, false for inactive

Solved entries (count: 2):
compound: Cc1ccc(N)cc1C
classification: false

compound: CC(Cl)CCl (stereo not drawn)
classification: false

Hi, do you know how Clc1ccc(C(Cl)(Cl)Cl)cc1Cl came out in this test?
false

Hi, do you know how CCCCCOC(=O)c1ccccc1C(=O)OCCCCC came out in this test?
false

Hi, do you know how C=C(Cl)CCl came out in this test?
false

Hi, do you know how Cc1ccc([N+](=O)[O-])cc1 came out in this test?
false

Hi, do you know how O=P(OCCCl)(OCCCl)OCCCl came out in this test?
false

Hi, do you know how O=[N+]([O-])c1cccc2c([N+](=O)[O-])cccc12 came out in this test?
false

Hi, do you know how Oc1cccc(Cl)c1 came out in this test?
false

Hi, do you know how CCCCOCC1CO1 (stereo not drawn) came out in this test?
false

Hi, do you know how Cc1cccc(N)c1C came out in this test?
false

Hi, do you know how C=CCc1cc(OC)c2c(c1)OCO2 came out in this test?
false

Hi, do you know how CCN(CC)N=O came out in this test?
false

Hi, do you know how N#CC(Br)Br came out in this test?
true

----------
System: HIV-1 nucleocapsid protein NCp7 (binding to TG oligonucleotide)
assay details: HIV Nucleocapsid (AID 346);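 note: potency is the fitted concentration of half-maximal effect; potency is for inhibitors that block NC binding and lower polarization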
test context: HIV-1 NC / fluorescein-TGTGTGTG probe, fluorescence polarization
Active and inactive are the calls of the source. No rule for the calls is given here.
readout label: Potency

substance smiles: N#Cc1cccc(NC(=O)N2CC[C@@]3(CCCNC3)C2)c1
result: > 20 µM (inactive)
//
substance smiles: CCNc1ncc2nc(-c3cn(C)c4ccccc34)c(=O)n(Cc3ccc(F)cc3)c2n1
result: > 20 µM (inactive)
//
substance smiles: CN(C)c1ccc(-c2nc(N3CCNCC3)c3ccccc3n2)cc1
result: > 20 µM (inactive)
//
substance smiles: COC(=O)N1CCC[C@@]2(CCN(C(=O)Nc3cccc(C#N)c3)C2)C1
result: > 4 µM (inactive)
//
substance smiles: COc1cccc(-c2cncnc2NCc2cccs2)c1
result: > 20 µM (inactive)

For the compound N#Cc1cccc(-c2nccc(NCc3ccccc3)n2)c1 , give its reported Potency.
> 20 µM (inactive)

----------
assay details: Cell Viability - LYMP2-018 (AID 985);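 note: compound exposure lasted 24 hr at 37 °C; plate controls were DMSO only for no effect and tetraoctylammonium bromide at 92 µM for full effect; nearly all actives have a fitted effect of over 50% in size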
test context: LYMP2-018 lymphoblastoid cells, viability (qHTS); series mostly up to 92.2 µM
From the text: NIH Chemical Genomics Center [NCGC] NIH Molecular Libraries Screening Centers Network [MLSCN] National Institutes of Environmental Health Sciences [NIEHS] National Toxicology Program [NTP] We have developed a 1536-well cell-based assay for quantitative high throughput screening (qHTS) against a number of cell lines to determine in vitro cytotoxicity of small molecules. […] 8. Detection; Luminescence; Viewlux plate reader […]
Results filed as inconclusive are left out. The source made the active and inactive calls. Calls follow the shape of the dose curve; as a rule, active = well fitted cell-killing curve with a large enough effect; inconclusive = small, poorly fitted or top-dose-only effect; inactive = flat fitted curve, though single readings scatter.
Form entry, call: pick from 1 for active, 0 for inactive

compound: Cc1cc(C)cc(OP(=O)(Oc2cc(C)cc(C)c2)Oc2cc(C)cc(C)c2)c1
classification: 0

Hi, do you know how CCC/C=N/O came out in this test?
0

Hi, do you know how COC(=O)Nc1nc2ccccc2[nH]1 came out in this test?
0

Hi, do you know how c1ccc(N=NNc2ccccc2)cc1 came out in this test?
0

Hi, do you know how CC(=O)CCC(C)=O came out in this test?
0

Hi, do you know how CCOC(=O)CC(SP(=O)(OC)OC)C(=O)OCC (centres undefined) came out in this test?
0

Hi, do you know how CC(C)[C@]12CC(=O)[C@H](C)[C@H]1C2 came out in this test?
0

Hi, do you know how CC(C)(C)OOC(=O)c1ccccc1 came out in this test?
0

Hi, do you know how Nc1c(Cl)cc([N+](=O)[O-])cc1Cl came out in this test?
0

Hi, do you know how ClC(Cl)Br came out in this test?
0

Hi, do you know how Cc1ccc(N)cc1N came out in this test?
0

Hi, do you know how C=CCBr came out in this test?
0

Hi, do you know how CCCN(CCC)c1c([N+](=O)[O-])cc(C(F)(F)F)cc1[N+](=O)[O-] came out in this test?
0

----------
target of assay: Glucocorticoid receptor (Homo sapiens) (UniProt P04150)
Sequence (P04150 whole entry, looked up): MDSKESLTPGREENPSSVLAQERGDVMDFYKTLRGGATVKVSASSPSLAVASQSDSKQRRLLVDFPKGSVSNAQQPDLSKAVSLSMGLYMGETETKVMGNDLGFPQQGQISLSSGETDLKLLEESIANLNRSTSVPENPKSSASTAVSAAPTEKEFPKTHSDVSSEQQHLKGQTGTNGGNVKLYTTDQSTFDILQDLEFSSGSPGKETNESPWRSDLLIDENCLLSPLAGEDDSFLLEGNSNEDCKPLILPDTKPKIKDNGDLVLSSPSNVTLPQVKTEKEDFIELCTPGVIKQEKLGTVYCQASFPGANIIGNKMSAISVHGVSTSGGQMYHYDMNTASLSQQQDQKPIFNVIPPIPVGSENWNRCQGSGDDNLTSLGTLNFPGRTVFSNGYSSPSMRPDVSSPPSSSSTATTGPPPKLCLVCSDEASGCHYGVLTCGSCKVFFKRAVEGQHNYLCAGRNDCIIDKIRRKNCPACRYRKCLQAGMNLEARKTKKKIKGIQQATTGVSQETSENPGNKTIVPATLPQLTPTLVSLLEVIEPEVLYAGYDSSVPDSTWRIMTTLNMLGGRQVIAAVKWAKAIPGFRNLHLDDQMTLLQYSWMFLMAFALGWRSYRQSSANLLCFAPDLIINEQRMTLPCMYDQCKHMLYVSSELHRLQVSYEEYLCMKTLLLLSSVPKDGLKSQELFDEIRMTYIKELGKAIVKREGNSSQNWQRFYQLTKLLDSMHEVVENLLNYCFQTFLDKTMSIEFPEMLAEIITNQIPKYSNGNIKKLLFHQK
assay details: GR-EFC Redistribution (AID 451); note: potency is the fitted concentration of half-maximal effect
test context: CHO-K1 GR-EFC translocation, beta-gal luminescence, 2 h
Activity calls are given as the source filed them. Calls come from the whole dose curve.
This section presents compounds with their documented Potency values.

compound: Cc1ccc(S(=O)(=O)O[C@H]2CN3CCC2CC3)cc1
Potency: > 9.22 µM (inactive)

compound: CCc1ccc(CCN2CCCCC2)nc1
Potency: > 9.22 µM (inactive)

compound: COc1ccccc1CN1CCCC2(CCN(C(=O)Oc3ccccc3)CC2)C1
Potency: > 46 µM (inactive)

compound: O=C(O)C(C(=O)O)P(=S)(S)c1ccccc1 (stereo unspecified)
Potency: > 9.22 µM (inactive)

compound: CC(=O)O[C@H]1CC[C@H]2[C@@H]3CCC4=C[C@@H](C5SCCS5)[C@H](OC(C)=O)C[C@]4(C)[C@H]3CC[C@@]12C
Potency: > 9.22 µM (inactive)

compound: CN1C[C@@H](CS(=O)(=O)N(C)C)C[C@H]2c3cccc4c3c(cn4C)C[C@@H]21
Potency: > 46 µM (inactive)

compound: N[C@@H](Cc1ccccc1)P(=O)(O)O
Potency: > 9.22 µM (inactive)

compound: O=C(NCP(=O)(O)O)c1cccnc1
Potency: > 9.22 µM (inactive)

compound: Cc1ccc(S(=O)ON2CCC(C(=O)O)(c3ccccc3)CC2)cc1 (stereo unspecified)
Potency: > 9.22 µM (inactive)

compound: [N-]=[N+]=NCC(=O)c1c[nH]c(=O)[nH]c1=O
Potency: > 9.22 µM (inactive)

Provide Potency, system Glucocorticoid receptor (Homo sapiens) (UniProt P04150), entry COc1ccc(C[C@@H](N)c2ccc(OC)cc2)cc1
> 9.22 µM (inactive)

Provide Potency, system Glucocorticoid receptor (Homo sapiens) (UniProt P04150), entry CC1=NN(c2ccc(S(=O)(=O)O)cc2C)C(=[OH+])[C@H]1N=Nc1cc(S(=O)(=O)O)ccc1C(=O)O.O.[Cr]
> 9.22 µM (inactive)

Provide Potency, system Glucocorticoid receptor (Homo sapiens) (UniProt P04150), entry O=C(O)[C@H]1CCN1
> 46 µM (inactive)

Provide Potency, system Glucocorticoid receptor (Homo sapiens) (UniProt P04150), entry CN[C@H](Cc1ccccc1)c1cccc(OC)c1O
> 9.22 µM (inactive)

Provide Potency, system Glucocorticoid receptor (Homo sapiens) (UniProt P04150), entry O=[As](O)(O)c1ccc2nc3cc([As](=O)(O)O)ccc3nc2c1
> 9.22 µM (inactive)

Provide Potency, system Glucocorticoid receptor (Homo sapiens) (UniProt P04150), entry CC(C)c1nccn1Cc1ccc(Cl)cc1Cl
> 9.22 µM (inactive)

Provide Potency, system Glucocorticoid receptor (Homo sapiens) (UniProt P04150), entry CC[C@H]1CN2CCc3cc(OC)c(OC)cc3[C@H]2C[C@@H]1C[C@H]1NCCc2c1[nH]c1ccc(O)cc21
> 9.22 µM (inactive)

Provide Potency, system Glucocorticoid receptor (Homo sapiens) (UniProt P04150), entry O=[As](O)(O)c1ccc(NCc2ccccc2)cc1
> 9.22 µM (inactive)

Provide Potency, system Glucocorticoid receptor (Homo sapiens) (UniProt P04150), entry C[C@H](CC(C#N)(c1ccccc1)c1ccccc1)N1CCCCC1
> 9.22 µM (inactive)

Provide Potency, system Glucocorticoid receptor (Homo sapiens) (UniProt P04150), entry O=C(O)C(Oc1nc(=S)[nH]c(=S)[nH]1)(c1ccc(Cl)cc1)c1ccc(Cl)cc1
> 9.22 µM (inactive)

// provenance: PubChem BioAssay (NCATS)
